A collection of compounds and their measured IC50
molecular target: α2β1 (Homo sapiens, UniProt P05556+P17301); experiment: α2β1 cell adhesion; assay type: cell-based
Sequence (P17301 30-1181): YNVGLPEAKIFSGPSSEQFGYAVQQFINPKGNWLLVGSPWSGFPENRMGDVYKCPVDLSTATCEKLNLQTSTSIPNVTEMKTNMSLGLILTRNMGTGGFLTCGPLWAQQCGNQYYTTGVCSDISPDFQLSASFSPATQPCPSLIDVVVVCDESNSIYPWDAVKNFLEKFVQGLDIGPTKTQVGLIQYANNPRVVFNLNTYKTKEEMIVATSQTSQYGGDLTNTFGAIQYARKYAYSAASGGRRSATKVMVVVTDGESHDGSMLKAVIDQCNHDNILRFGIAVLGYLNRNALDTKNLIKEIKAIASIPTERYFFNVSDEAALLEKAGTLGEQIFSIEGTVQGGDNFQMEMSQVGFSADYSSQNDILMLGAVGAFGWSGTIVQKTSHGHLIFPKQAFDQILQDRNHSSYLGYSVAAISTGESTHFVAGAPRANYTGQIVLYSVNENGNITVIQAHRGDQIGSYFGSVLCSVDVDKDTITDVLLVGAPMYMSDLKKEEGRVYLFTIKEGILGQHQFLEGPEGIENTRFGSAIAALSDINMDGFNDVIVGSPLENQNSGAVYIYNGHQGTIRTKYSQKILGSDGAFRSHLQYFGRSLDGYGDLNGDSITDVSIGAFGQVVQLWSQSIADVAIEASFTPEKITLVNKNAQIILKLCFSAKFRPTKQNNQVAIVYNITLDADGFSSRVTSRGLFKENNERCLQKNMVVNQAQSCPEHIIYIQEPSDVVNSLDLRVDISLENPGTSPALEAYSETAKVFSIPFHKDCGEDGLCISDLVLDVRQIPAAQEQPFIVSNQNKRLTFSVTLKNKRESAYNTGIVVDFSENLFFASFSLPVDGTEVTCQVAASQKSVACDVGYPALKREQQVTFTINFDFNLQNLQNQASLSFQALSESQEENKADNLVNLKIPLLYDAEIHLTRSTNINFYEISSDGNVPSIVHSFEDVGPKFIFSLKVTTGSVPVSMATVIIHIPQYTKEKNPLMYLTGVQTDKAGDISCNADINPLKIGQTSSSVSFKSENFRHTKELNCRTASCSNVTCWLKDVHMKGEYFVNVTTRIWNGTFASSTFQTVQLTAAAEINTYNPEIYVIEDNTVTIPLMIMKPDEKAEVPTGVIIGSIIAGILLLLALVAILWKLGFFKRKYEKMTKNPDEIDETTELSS
Sequence (P05556 21-798): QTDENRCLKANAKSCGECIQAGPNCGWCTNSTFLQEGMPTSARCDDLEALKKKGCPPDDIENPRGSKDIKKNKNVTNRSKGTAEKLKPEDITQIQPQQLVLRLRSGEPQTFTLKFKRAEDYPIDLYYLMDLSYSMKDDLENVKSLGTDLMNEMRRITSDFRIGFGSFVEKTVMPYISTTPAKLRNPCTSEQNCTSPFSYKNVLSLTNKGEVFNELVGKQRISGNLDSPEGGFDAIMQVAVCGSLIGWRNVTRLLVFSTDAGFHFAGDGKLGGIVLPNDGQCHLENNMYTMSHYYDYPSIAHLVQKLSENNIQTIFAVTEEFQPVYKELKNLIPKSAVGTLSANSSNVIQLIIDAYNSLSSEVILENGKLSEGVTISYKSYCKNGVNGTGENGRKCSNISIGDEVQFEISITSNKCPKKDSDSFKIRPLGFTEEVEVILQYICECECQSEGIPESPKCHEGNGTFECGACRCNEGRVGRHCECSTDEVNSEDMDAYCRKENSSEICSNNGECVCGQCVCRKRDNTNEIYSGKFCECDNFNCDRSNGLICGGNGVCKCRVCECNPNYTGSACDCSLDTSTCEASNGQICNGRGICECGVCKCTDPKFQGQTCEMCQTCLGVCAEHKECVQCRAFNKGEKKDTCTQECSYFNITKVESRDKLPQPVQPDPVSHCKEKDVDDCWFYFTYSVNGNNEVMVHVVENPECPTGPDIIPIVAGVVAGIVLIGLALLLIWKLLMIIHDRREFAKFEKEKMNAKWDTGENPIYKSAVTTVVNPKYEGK

Known IC50 results, listed for orientation:
1. O=C(NC[C@H](NC(=O)c1c(Cl)cc(C(=O)NCc2cccc(Cl)c2)cc1Cl)C(=O)O)N[C@@H]1CCc2ccccc21 | < 500 nM
2. O=C(NC[C@H](NC(=O)c1c(Cl)ccc(NCCc2ccccc2)c1Cl)C(=O)O)N[C@@H]1CCc2ccccc21 | 1000 to 5000 nM
3. CN(Cc1cccc(Cl)c1)C(=O)c1cc(Cl)c(C(=O)N[C@@H](CNC(=O)N[C@@H]2CCc3ccccc32)C(=O)O)c(Cl)c1 | 500 to 1000 nM
4. O=C(NC[C@H](NC(=O)c1c(Cl)ccc(NC2CCc3ccccc3C2)c1Cl)C(=O)O)N[C@@H]1CCc2ccccc21 (stereo partly drawn) | 1000 to 5000 nM
5. CN(Cc1ccccc1)C(=O)NC[C@H](NC(=O)c1c(Cl)cccc1Cl)C(=O)O | < 500 nM

-- ask Which IC50 reading was recorded for the compound O=C(NC[C@H](NC(=O)c1c(Cl)cc(C(=O)N2Cc3ccccc3C2)cc1Cl)C(=O)O)N[C@@H]1CCc2ccccc21 ?
-- reply 1000 to 5000 nM
